- system: Lp-PLA2 in rabbit serum (Oryctolagus cuniculus)
- Construct: from tissue; host or cells: rabbit serum
- protocol-description: In vitro inhibitory activity towards the enzyme Lp-PLA2 in rabbit serum, [3H]PAF substrate
- Type: biochemical
- test-parameters: 100 nM; rabbit serum; read-out: inhibition, %
- Method: The activities of compounds were measured using [^3H] labeled platelet activating factor ([^3H]PAF, Perkinelmer, Lot NET910) as the substrate. The reaction was carried out in a system containing 50 mmol/L HEPES and 150 mmol/L NaCl (pH 7.4) in a total volume of 200 μl. […] A 100 μl portion of the supernatant was then collected for radioactivity intensity measurement. The inhibition rate was determined by the following equation: […] (Note: DPM is radioactivity intensity unit.)
observed-property: inhibition at 0.1 µM (%)

For orientation, consider the following solved cases.
CN(C)Cc1nnc(Cn2c(SCc3ccc(F)cc3)nc(=O)c3c2CCC3)n1Cc1ccc(-c2ccc(C(F)(F)F)cc2)cc1 [Example 75]	88.3
COC(=O)C(C)(C)N1CCN(Cc2nnc(Cn3c(SCc4ccc(F)cc4)nc(=O)c4c3CCC4)n2Cc2ccc(-c3ccc(C(F)(F)F)cc3)cc2)CC1 [Example 88]	67
CCCc1nnc(Cn2c(SCc3ccc(F)cc3)nc(=O)c3c2CCC3)n1Cc1ccc(-c2ccc(C(F)(F)F)cc2)cc1 [Example 66]	88
CC(C)(C(=O)O)N1CCN(Cc2nnc(Cn3c(SCc4ccc(F)cc4)nc(=O)c4c3CCC4)n2Cc2ccc(-c3ccc(C(F)(F)F)cc3)cc2)CC1 [Example 89]	13.4
COC(=O)CN(C)Cc1nnc(Cn2c(SCc3ccc(F)cc3)nc(=O)c3c2CCC3)n1Cc1ccc(-c2ccc(C(F)(F)F)cc2)cc1 [Example 62]	81.9
CC(C)c1nnc(Cn2c(SCc3ccc(F)cc3)nc(=O)c3c2CCC3)n1Cc1ccc(-c2ccc(C(F)(F)F)cc2)cc1 [Example 67]	91

P: CC(C)N(C)Cc1nnc(Cn2c(SCc3ccc(F)cc3)nc(=O)c3c2CCC3)n1Cc1ccc(-c2ccc(C(F)(F)F)cc2)cc1 [Example 82]
Q: O=c1nc(SCc2ccc(F)cc2)n(Cc2nccn2Cc2ccc(-c3ccc(Cl)cc3)cc2)c2c1CCC2 [Example 32]
// which entry has the larger inhibition at 0.1 µM value, P or Q ? Answer with the label corresponding to your selection.
P
(P: 85%, Q: 2.1%)

* * *

- system: Lp-PLA2 in human serum (Homo sapiens)
- Construct: from tissue
- protocol-description: In vitro inhibitory activity towards the enzyme Lp-PLA2 in human serum, [3H]PAF substrate
- Type: biochemical
- test-parameters: 100 nM; human serum
- Experimental: The activities of compounds were measured using [^3H] labeled platelet activating factor ([^3H]PAF, Perkinelmer, Lot NET910) as the substrate. The reaction was carried out in a system containing 50 mmol/l HEPES and 150 mmol/l NaCl (pH 7.4) in a total volume of 200 μl. First, 10 μL human plasma and 10 μl DMSO solution of the test compound were added to the system and preincubated for 10 min at 37° C. […] A 100 μl portion of the supernatant was then collected for radioactivity intensity measurement.
observed-property: inhibition at 0.1 µM (%)

CCS(=O)(=O)NCc1nnc(Cn2c(SCc3ccc(F)cc3)nc(=O)c3c2CCC3)n1Cc1ccc(-c2ccc(C(F)(F)F)cc2)cc1	92
COC(=O)C(C)(C)NCc1nnc(Cn2c(SCc3ccc(F)cc3)nc(=O)c3c2CCC3)n1Cc1ccc(-c2ccc(C(F)(F)F)cc2)cc1	91
O=c1nc(SCc2ccc(F)cc2)n(Cc2nnc(CO)n2Cc2ccc(-c3ccc(C(F)(F)F)cc3)cc2)c2c1CCC2	91
CC(=O)NCc1nnc(Cn2c(SCc3ccc(F)cc3)nc(=O)c3c2CCC3)n1Cc1ccc(-c2ccc(C(F)(F)F)cc2)cc1	83
CN(C)C1CCN(Cc2nnc(Cn3c(SCc4ccc(F)cc4)nc(=O)c4c3CCC4)n2Cc2ccc(-c3ccc(C(F)(F)F)cc3)cc2)CC1	98
CN(Cc1ccc(F)cc1)Cc1cnc(Cn2c(SCc3ccc(F)cc3)nc(=O)c3c2CCC3)n1Cc1ccc(-c2ccc(C(F)(F)F)cc2)cc1	95
O=c1nc(SCc2ccc(F)cc2)n(Cc2ncc(CN3CCN(Cc4ccccc4)CC3)n2Cc2ccc(-c3ccc(C(F)(F)F)cc3)cc2)c2c1CCC2	90
O=c1nc(SCc2ccc(F)cc2)n(Cc2nnc(/C=N/N3CCCCC3)n2Cc2ccc(-c3ccc(C(F)(F)F)cc3)cc2)c2c1CCC2	92
CN(Cc1ccc(F)cc1)Cc1nnc(Cn2c(SCc3ccc(F)cc3)nc(=O)c3c2CCC3)n1Cc1ccc(-c2ccc(C(F)(F)F)cc2)cc1	98

* * *

- system: Lp-PLA2 in human serum (Homo sapiens, UniProt Q13093)
- Construct: from tissue
- Sequence (Q13093 22-441): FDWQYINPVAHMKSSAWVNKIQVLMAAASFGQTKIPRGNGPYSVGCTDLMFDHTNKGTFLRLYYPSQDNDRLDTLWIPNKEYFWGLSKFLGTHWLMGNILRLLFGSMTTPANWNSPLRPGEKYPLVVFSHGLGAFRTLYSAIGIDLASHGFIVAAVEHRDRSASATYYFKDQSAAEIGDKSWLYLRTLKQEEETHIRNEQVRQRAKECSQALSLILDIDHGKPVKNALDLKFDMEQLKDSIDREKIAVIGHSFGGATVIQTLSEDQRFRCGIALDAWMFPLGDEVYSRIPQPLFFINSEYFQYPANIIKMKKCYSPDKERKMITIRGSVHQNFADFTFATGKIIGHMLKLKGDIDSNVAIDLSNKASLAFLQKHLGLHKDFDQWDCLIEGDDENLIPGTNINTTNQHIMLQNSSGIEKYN
- protocol-description: In vitro inhibitory activity towards the enzyme Lp-PLA2 in human serum, [3H]PAF substrate
- Format: biochemical
- test-parameters: 10 nM; human serum; read-out: inhibition, %
observed-property: inhibition at 0.01 µM (%)

CN(C)C1CCN(Cc2nnc(Cn3c(SCc4ccc(F)cc4)nc(=O)c4c3CCC4)n2Cc2ccc(-c3ccc(C(F)(F)F)cc3)cc2)CC1 [Example 103]	71
CCN(CC)Cc1nnc(Cn2c(SCc3ccc(F)cc3)nc(=O)c3c2CCC3)n1Cc1ccc(-c2ccc(C(F)(F)F)cc2)cc1 [Example 79]	68
C[C@@H]1CN(Cc2nnc(Cn3c(SCc4ccc(F)cc4)nc(=O)c4c3CCC4)n2Cc2ccc(-c3ccc(C(F)(F)F)cc3)cc2)C[C@H](C)O1 [Example 84]	69
CCS(=O)(=O)NCc1nnc(Cn2c(SCc3ccc(F)cc3)nc(=O)c3c2CCC3)n1Cc1ccc(-c2ccc(C(F)(F)F)cc2)cc1 [Example 111]	68

* * *

- system: Lp-PLA2 in rabbit serum (Oryctolagus cuniculus, UniProt G1SE06)
- Construct: from tissue; host or cells: rabbit serum
- Sequence (G1SE06 22-423): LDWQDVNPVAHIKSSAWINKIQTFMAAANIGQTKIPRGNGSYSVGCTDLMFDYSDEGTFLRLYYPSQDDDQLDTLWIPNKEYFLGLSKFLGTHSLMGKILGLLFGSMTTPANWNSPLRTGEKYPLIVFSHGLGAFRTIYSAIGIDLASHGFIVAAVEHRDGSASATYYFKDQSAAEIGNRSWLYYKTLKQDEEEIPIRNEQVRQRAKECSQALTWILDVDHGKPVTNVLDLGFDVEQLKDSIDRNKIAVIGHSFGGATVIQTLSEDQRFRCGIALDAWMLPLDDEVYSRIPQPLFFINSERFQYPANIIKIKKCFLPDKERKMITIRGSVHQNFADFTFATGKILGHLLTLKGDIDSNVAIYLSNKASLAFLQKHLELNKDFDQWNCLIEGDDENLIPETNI
- protocol-description: In vitro inhibitory activity towards the enzyme Lp-PLA2 in rabbit serum, [3H]PAF substrate
- Type: biochemical
- test-parameters: 100 nM; rabbit serum; read-out: inhibition, %
observed-property: inhibition at 0.1 µM (%)

CN(C)CCN(C)Cc1onc(Cn2c(SCc3ccc(F)cc3)nc(=O)c3c2CCC3)c1Cc1ccc(-c2ccc(C(F)(F)F)cc2)cc1 [Example 158]	98
CC(O)c1nnc(Cn2c(SCc3ccc(F)cc3)nc(=O)c3c2CCC3)n1Cc1ccc(-c2ccc(C(F)(F)F)cc2)cc1 (stereo not drawn) [Example 120]	90
CC(NCCN(C)C)c1nnc(Cn2c(SCc3ccc(F)cc3)nc(=O)c3c2CCC3)n1Cc1ccc(-c2ccc(C(F)(F)F)cc2)cc1 (stereo not drawn) [Example 128]	94
O=C1NCCN1CCNCc1nnc(Cn2c(SCc3ccc(F)cc3)nc(=O)c3c2CCC3)n1Cc1ccc(-c2ccc(C(F)(F)F)cc2)cc1 [Example 102]	97
Cc1nnc(Cn2cc(Cc3cnn(C)c3)c(=O)nc2SCc2ccc(F)cc2)n1Cc1ccc(-c2ccc(C(F)(F)F)cc2)cc1 [Example 65]	60
O=c1nc(SCc2ccc(F)cc2)n(Cc2nnc(/C=N/N3CCCCC3)n2Cc2ccc(-c3ccc(C(F)(F)F)cc3)cc2)c2c1CCC2 [Example 117]	80
CN(Cc1ccc(F)cc1)Cc1nnc(Cn2c(SCc3ccc(F)cc3)nc(=O)c3c2CCC3)n1Cc1ccc(-c2ccc(C(F)(F)F)cc2)cc1 [Example 81]	90
C[C@@H]1CN(Cc2nnc(Cn3c(SCc4ccc(F)cc4)nc(=O)c4c3CCC4)n2Cc2ccc(-c3ccc(C(F)(F)F)cc3)cc2)C[C@H](C)O1 [Example 84]	76
CN(C)C1CCN(Cc2nnc(Cn3c(SCc4ccc(F)cc4)nc(=O)c4c3CCC4)n2Cc2ccc(-c3ccc(C(F)(F)F)cc3)cc2)CC1 [Example 103]	82
C[N+](C)(CCO)Cc1nnc(Cn2c(SCc3ccc(F)cc3)nc(=O)c3c2CCC3)n1Cc1ccc(-c2ccc(C(F)(F)F)cc2)cc1 [Example 122]	95
CCN(CC)Cc1onc(Cn2c(SCc3ccc(F)cc3)nc(=O)c3c2CCC3)c1Cc1ccc(-c2ccc(C(F)(F)F)cc2)cc1 [Example 157]	89
CCN(CC)CCN(CC(=O)O)Cc1nnc(Cn2c(SCc3ccc(F)cc3)nc(=O)c3c2CCC3)n1Cc1ccc(-c2ccc(C(F)(F)F)cc2)cc1 [Example 135]	83
